Assignment: determine reported MCF7 pHER3 IC50 for the given binders.
Target: human HER3 endogenously expressed on human cancer cells (SK-Br-3, BT-474, MCF7) (human, UniProt P21860 20-1342)
Assay: cell-based or functional assay
The reply should be a number in pM, with the unit left off.

Specify MCF7 pHER3 IC50 for MOR13659 (antibody, human IgG1, lambda, V domains shown) VH: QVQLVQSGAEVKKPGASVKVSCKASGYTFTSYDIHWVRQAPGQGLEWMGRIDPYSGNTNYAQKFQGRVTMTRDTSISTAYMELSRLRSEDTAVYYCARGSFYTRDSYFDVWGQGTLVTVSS VL: DIALTQPASVSGSPGQSITISCTGTSSDVGTYNQVSWYQQHPGKAPKLMIYGVSKRPSGVSNRFSGSKSGNTASLTISGLQAEDEADYYCGSRTSHNWVFGGGTKLTVLG and stop.
505

Specify MCF7 pHER3 IC50 for MOR13661 (antibody, human IgG1, lambda, V domains shown) VH: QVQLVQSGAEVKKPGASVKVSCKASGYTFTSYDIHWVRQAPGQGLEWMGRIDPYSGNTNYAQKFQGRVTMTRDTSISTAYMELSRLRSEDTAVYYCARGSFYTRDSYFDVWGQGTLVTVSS VL: DIALTQPASVSGSPGQSITISCTGTSSDVGTYNQVSWYQQHPGKAPKLMIYGVSKRPSGVSNRFSGSKSGNTASLTISGLQAEDEADYYCGSRDSWAHVFGGGTKLTVLG and stop.
649

Specify MCF7 pHER3 IC50 for MOR14538 (antibody, human IgG1, lambda, V domains shown, Tested as IgG) VH: QVQLVQSGAEVKKPGASVKVSCKASGYTFTSYDIHWVRQAPGQGLEWMGRIDPYSGNTNYAQKFQGRVTMTRDTSISTAYMELSRLRSDDTAVYYCARGSFYTRDSYFDVWGQGTLVTVSS VL: QSALTQPASVSGSPGQSITISCTGTSSDVGTYNQVSWYQQHPGKAPKLMIYGVSKRPSGVSNRFSGSKSGNTASLTISGLQAEDEADYYCASADHSYHTVFGGGTKLTVLG and stop.
615
